tested on: Plasmodium falciparum; assay: Antiplasmodial activity against chloroquine-sensitive Plasmodium falciparum D6 infected in red blood cells after 72 hrs by Malstat reagent based LDH assay; type: functional, cell-based; details: D6, 72 h
Parameter: pIC50. Scope: all listed entries.
pIC50 here: minus log base 10 of the concentration, concentration in moles per litre.

Use these answered entries as a reference point.
[Q] For the compound shown here, `Cc1cc(N(CCCNc2ccnc3cc(Cl)ccc23)Cc2ccc3c(c2)OCO3)nc(N2CCCCC2)n1` , give the reported pIC50.
[A] 6.82

[Q] For the compound shown here, `Cc1cc(N2CCCCC2)nc(N(CCCNc2ccnc3cc(Cl)ccc23)Cc2ccc3c(c2)OCO3)n1` , give the reported pIC50.
[A] 6.82

[Q] For the compound shown here, `Cc1cc(N(CCNc2ccnc3cc(Cl)ccc23)Cc2ccc3c(c2)OCO3)nc(Cl)n1` , give the reported pIC50.
[A] 6.23

As a next step, examine the compound that follows.
[Q] For the compound shown here, `Cc1cc(N(CCNc2ccnc3cc(Cl)ccc23)Cc2ccc3c(c2)OCO3)nc(N2CCCCC2)n1` , give the reported pIC50.
[A] 7.30
